# Tested on: non-malignant CHO-K1 cell line
# Experiment description: Sulforhodamine B (SRB) cytotoxicity assay, non-malignant cells
# Type: cell-based
# Measurement setup: Cricetulus griseus, 24 h, mean ± SE
# Procedure: To determine the cytotoxic effect of the synthesized hybrids, they were evaluated against SW480 human colon adenocarcinoma cells, its metastatic derivative SW620 and the non-malignant CHO-K1 cell line, through the sulforhodamine B assay. […] Cytotoxicity of the synthesized hybrids, lead and reference compounds was evaluated through Sulforhodamine B (SRB) assay, a colorimetric test that is based on staining of total cellular protein of adherent cells. […]
The entries below are paired with their reported IC50.
// return numeric value only (unit: µM, not printed)

Illustrative cases are given below, each with its answer.
COc1cc(/C=C/C(=O)c2ccc(/C=C/c3ccc(OC)c(OC)c3)cc2)ccc1O ... 104
COc1ccc(/C=C/c2ccc(C(=O)/C=C/c3ccc(O)c(OC)c3)cc2)c(OC)c1 ... 101
COc1cc(/C=C/C(=O)c2ccc(/C=C/c3cccc(OC)c3OC)cc2)ccc1O ... 31
COc1cc(/C=C/C(=O)c2ccc(/C=C/c3cc(OC)c(O)c(OC)c3)cc2)ccc1O ... 90
COc1cc(/C=C/C(=O)c2ccc(/C=C/c3c(OC)cccc3OC)cc2)ccc1O ... 95

Please find the next compound below.
Exam item: If you can, please state the reported IC50 value of COc1cc(/C=C/c2ccc(C(=O)/C=C/c3ccc(O)c(OC)c3)cc2)cc(OC)c1 .
Marked response: 97.4
